Provenance of the data: paper PMC3797041

test.system: T1, Staphylococcal enterotoxin B (Staphylococcus aureus, strain , UniProt P01552)
T1 construct: source: bought: Toxin Technologies
T1 sequence (P01552 28-266): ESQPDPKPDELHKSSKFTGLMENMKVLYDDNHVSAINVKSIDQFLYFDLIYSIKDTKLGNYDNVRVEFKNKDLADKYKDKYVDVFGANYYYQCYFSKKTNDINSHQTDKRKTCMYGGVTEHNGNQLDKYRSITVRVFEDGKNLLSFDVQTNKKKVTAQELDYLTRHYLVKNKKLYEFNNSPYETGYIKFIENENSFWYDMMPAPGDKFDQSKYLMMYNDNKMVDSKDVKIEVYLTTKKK
measurement.description: SPR
condition.details: both partners purified
observed.property: Kd (nM)
Quick reminder: number only, in nM, skip the unit.

Write down Kd measured for item hybrid DAD (VHH) VHH: EVQLQASGGGLVQPGGSLRLACQYSGREGTTTVGWFRQSPGKEREFVAAISAAPGTAYYAFYADSVRGRFTTSSDNFKKTAYLQMNGLKPEDTALYYCTEDTWNSVVTGTAADWSQGTQVTVSS
20

Give recorded Kd. hybrid antibody C8A3 (VHH) VHH: EVQLQASGGGLVQGGDSLRLSCAASGRTFSRAVMGWFRQAPGKEREFVSAISAAPGTAYYAFYADSVRGRFTISRDNAKNAVYLQMNSLKPEDTAVYYCAVDLKMQVAAYMNQRSVDYWGQGTQVTVSS
2.7

Indicate the recorded Kd value for this binder: hybrid construct D1A3 (VHH) VHH: EVQLQASGGGLVQPGGSLRLACQYSGRTFSRAVMGWFRQSPGKEREFVAAISAAPGTAYYAFYADSVRGRFTTSSDNFKKTAYLQMNGLKPEDTALYYCTEDLKMQVAAYMNQRSVDYWSQGTQVTVSS
0.56

Fill in Kd for record hybrid AAD (VHH) VHH: EVQLVESGGGLVQAGDSLRLSCTASGRTFSRAVMGWFRQAPGKEREFVAAISAAPGTAYYAFYADSVRGRFSISADSAKNTVYLQMNSLKPEDTAVYYCAADTWNSVVTGTAADWGQGTQVTVSS
12
